tested on: KM12; test: cells; assay type: cell-based; details: Homo sapiens, read-out: Log10 TGI (converted)
ATTRIBUTE_MEASURED: IC (TGI) (µM)
Note: unit µM is implicit; provide only the numeric part.

INSERT INTO assay_data (mol, obs_value) VALUES
  ('C[C@H]1[C@@H](F)O[C@@H]2O[C@@]3(C)CC[C@H]4[C@H](C)CC[C@@H]1[C@@]24OO3', 26.9);

Recorded IC (TGI) of C[C@H]1[C@@H](CC(=O)c2ccc(C(=O)C[C@H]3O[C@@H]4O[C@@]5(C)CC[C@H]6[C@H](C)CC[C@@H]([C@H]3C)[C@@]46OO5)cc2)O[C@@H]2O[C@@]3(C)CC[C@H]4[C@H](C)CC[C@@H]1[C@@]24OO3 , please.
14.5

* * *

test system: BT-549; test: cells; assay type: cell-based; conditions: Homo sapiens, read-out: Log10 TGI (converted)
ATTRIBUTE_MEASURED: IC (TGI) (µM)
Your answer should be a plain number; it is taken to be in µM.

// worked examples, IC (TGI) included
INSERT INTO results (mol, attribute_measured, obs_value) VALUES
  ('C[C@@H]1CC[C@H]2[C@@H](C)C(=O)O[C@@H]3O[C@@]4(C)CC[C@@H]1[C@]32OO4', 'IC (TGI)', 100),
  ('C[C@H]1[C@@H](CC(=O)c2ccc(C(=O)C[C@H]3O[C@@H]4O[C@@]5(C)CC[C@H]6[C@H](C)CC[C@@H]([C@H]3C)[C@@]46OO5)cc2)O[C@@H]2O[C@@]3(C)CC[C@H]4[C@H](C)CC[C@@H]1[C@@]24OO3', 'IC (TGI)', 49);

Here is another compound to look at.
// query IC (TGI) value for entry C[C@H]1[C@@H](F)O[C@@H]2O[C@@]3(C)CC[C@H]4[C@H](C)CC[C@@H]1[C@@]24OO3
30.9

* * *

test system: A549/ATCC; assay: NCI 60 cell line screen (SRB), non-small cell lung cancer; format: cell-based; conditions: Homo sapiens, read-out: Log10 TGI (converted)
ATTRIBUTE_MEASURED: IC (TGI) (µM)
All answers are understood in µM, so give the number only.

INSERT INTO measurements (compound, obs_value) VALUES
  ('C[C@H]1[C@@H](CC(=O)c2ccc(C(=O)C[C@H]3O[C@@H]4O[C@@]5(C)CC[C@H]6[C@H](C)CC[C@@H]([C@H]3C)[C@@]46OO5)cc2)O[C@@H]2O[C@@]3(C)CC[C@H]4[C@H](C)CC[C@@H]1[C@@]24OO3 [Dimer 21]', 13.5);

Then this compound:
Bench note: what IC (TGI) did C[C@H]1[C@@H](F)O[C@@H]2O[C@@]3(C)CC[C@H]4[C@H](C)CC[C@@H]1[C@@]24OO3 [Compound VI, 10β-Fluorodeoxoartemisinin] show?
30.9

* * *

system: 60 cell line panel; experiment: NCI 60 cell line screen, whole panel; type: cell-based; details: panel
Each entry below carries its recorded Log10 TGI Range.
Keep the answer to the number alone.

Entry under review: CC(=O)O[C@H]1C(=O)[C@@]2(C)[C@H]([C@H](OC(=O)c3ccccc3)[C@]3(O)C[C@H](OC(=O)[C@H](O)[C@@H](NC(=O)c4ccccc4)c4ccccc4)C(C)=C1C3(C)C)[C@]1(OC(C)=O)CO[C@@H]1C[C@@H]2O [Paclitaxel, paclitaxel, reference compound] . Reported Log10 TGI Range?
7.20

Any idea what its Log10 TGI Range is? The compound is C[C@H]1[C@@H](CC(=O)c2cccc(C(=O)C[C@H]3O[C@@H]4O[C@@]5(C)CC[C@H]6[C@H](C)CC[C@@H]([C@H]3C)[C@@]46OO5)c2)O[C@@H]2O[C@@]3(C)CC[C@H]4[C@H](C)CC[C@@H]1[C@@]24OO3 [Dimer 22]
0.00

What value of Log10 TGI Range has been recorded for this entry: C[C@H]1[C@@H](CC(=O)c2ccc(C(=O)C[C@H]3O[C@@H]4O[C@@]5(C)CC[C@H]6[C@H](C)CC[C@@H]([C@H]3C)[C@@]46OO5)cc2)O[C@@H]2O[C@@]3(C)CC[C@H]4[C@H](C)CC[C@@H]1[C@@]24OO3 [Dimer 21]
4.00

So what does the record say about Log10 TGI Range for C[C@@H]1CC[C@H]2[C@@H](C)C(=O)O[C@@H]3O[C@@]4(C)CC[C@@H]1[C@]32OO4 [Artemisinin] ?
0.06

* * *

tested on: ACHN; test: cells; details: Homo sapiens, read-out: Log10 LC50 (converted)
Below, each of the compounds is paired with its reported CC50 value.
Give just the number in µM; leave the unit off.

INSERT INTO assay_data (compound, measured_target, attribute_measured, obs_value) VALUES
  ('C[C@H]1[C@@H](F)O[C@@H]2O[C@@]3(C)CC[C@H]4[C@H](C)CC[C@@H]1[C@@]24OO3', 'ACHN', 'CC50', 38.9);

--- query ---
API: value(readout=CC50, system=ACHN) for record CC(=O)O[C@H]1C(=O)[C@@]2(C)[C@H]([C@H](OC(=O)c3ccccc3)[C@]3(O)C[C@H](OC(=O)[C@H](O)[C@@H](NC(=O)c4ccccc4)c4ccccc4)C(C)=C1C3(C)C)[C@]1(OC(C)=O)CO[C@@H]1C[C@@H]2O [Paclitaxel, paclitaxel, reference compound]
35.5

* * *

system: IGROVI
The compounds listed here are annotated with their GI50.
Provide the reading as a plain figure in nM.

Illustrative cases are given below, each with its answer.
INSERT INTO measurements (compound, obs_value) VALUES
  ('C[C@@H]1CC[C@H]2[C@@H](C)C(=O)O[C@@H]3O[C@@]4(C)CC[C@@H]1[C@]32OO4 [Artemisinin]', 49000),
  ('CC(=O)O[C@H]1C(=O)[C@@]2(C)[C@H]([C@H](OC(=O)c3ccccc3)[C@]3(O)C[C@H](OC(=O)[C@H](O)[C@@H](NC(=O)c4ccccc4)c4ccccc4)C(C)=C1C3(C)C)[C@]1(OC(C)=O)CO[C@@H]1C[C@@H]2O [Paclitaxel, paclitaxel, reference compound]', 2.45),
  ('C[C@H]1[C@@H](F)O[C@@H]2O[C@@]3(C)CC[C@H]4[C@H](C)CC[C@@H]1[C@@]24OO3 [Compound VI, 10β-Fluorodeoxoartemisinin]', 1230);

Lab request: please report GI50 under test system IGROVI for C[C@H]1[C@@H](CC(=O)c2cccc(C(=O)C[C@H]3O[C@@H]4O[C@@]5(C)CC[C@H]6[C@H](C)CC[C@@H]([C@H]3C)[C@@]46OO5)c2)O[C@@H]2O[C@@]3(C)CC[C@H]4[C@H](C)CC[C@@H]1[C@@]24OO3 [Dimer 22]
589

* * *

Recorded IC (TGI), one value per entry.
tested on: NCI-H23; assay: NCI 60 cell line screen (SRB), non-small cell lung cancer; assay type: cell-based; conditions: Homo sapiens, read-out: Log10 TGI (converted)

Example cases with answers are listed next.
INSERT INTO assay_data (compound, attribute_measured, obs_value) VALUES
  ('C[C@H]1[C@@H](F)O[C@@H]2O[C@@]3(C)CC[C@H]4[C@H](C)CC[C@@H]1[C@@]24OO3 [Compound VI, 10β-Fluorodeoxoartemisinin]', 'IC (TGI)', '25.1 µM'),
  ('C[C@@H]1CC[C@H]2[C@@H](C)C(=O)O[C@@H]3O[C@@]4(C)CC[C@@H]1[C@]32OO4 [Artemisinin]', 'IC (TGI)', '> 100 µM');

Using the record for C[C@H]1[C@@H](CC(=O)c2ccc(C(=O)C[C@H]3O[C@@H]4O[C@@]5(C)CC[C@H]6[C@H](C)CC[C@@H]([C@H]3C)[C@@]46OO5)cc2)O[C@@H]2O[C@@]3(C)CC[C@H]4[C@H](C)CC[C@@H]1[C@@]24OO3 [Dimer 21] , report its IC (TGI).
> 100 µM

Which IC (TGI) value belongs to C[C@H]1[C@@H](CC(=O)c2cccc(C(=O)C[C@H]3O[C@@H]4O[C@@]5(C)CC[C@H]6[C@H](C)CC[C@@H]([C@H]3C)[C@@]46OO5)c2)O[C@@H]2O[C@@]3(C)CC[C@H]4[C@H](C)CC[C@@H]1[C@@]24OO3 [Dimer 22] ?
> 100 µM

* * *

system: ACHN; test: cells; details: Homo sapiens, read-out: Log10 LC50 (converted)
ATTRIBUTE_MEASURED: CC50

Known results for compounds:
INSERT INTO measurements (mol, attribute_measured, obs_value) VALUES
  ('C[C@H]1[C@@H](CC(=O)c2cccc(C(=O)C[C@H]3O[C@@H]4O[C@@]5(C)CC[C@H]6[C@H](C)CC[C@@H]([C@H]3C)[C@@]46OO5)c2)O[C@@H]2O[C@@]3(C)CC[C@H]4[C@H](C)CC[C@@H]1[C@@]24OO3', 'CC50', '> 100 µM'),
  ('C[C@H]1[C@@H](CC(=O)c2ccc(C(=O)C[C@H]3O[C@@H]4O[C@@]5(C)CC[C@H]6[C@H](C)CC[C@@H]([C@H]3C)[C@@]46OO5)cc2)O[C@@H]2O[C@@]3(C)CC[C@H]4[C@H](C)CC[C@@H]1[C@@]24OO3', 'CC50', '> 100 µM');

Now let's try a different one.
API: value(readout= CC50, system= ACHN, query= C[C@@H]1CC[C@H]2[C@@H](C)C(=O)O[C@@H]3O[C@@]4(C)CC[C@@H]1[C@]32OO4 )
> 100 µM
